Target: G protein-coupled receptor GPR35 (Rattus norvegicus)
Test: Agonist activity at rat GPR35 expressed in CHO cells assessed as induction of beta-arrestin recruitment at 10 uM after 90 mins by beta-galactosidase reporter gene assay
Type: cell-based
endpoint-name: Activity (%)

Answered cases to consult:
• Nc1cccc2c(=O)cc(C(=O)O)oc12 = 40
• O=C(O)c1cc(=O)c2cc(F)cc(NC(=O)c3ccc(Cl)cc3Cl)c2o1 = 46
• O=C(Nc1cccc2c(=O)cc(C(=O)O)oc12)c1ccc(OCC2CC2)cc1 = 48
• O=C(O)c1cc(=O)c2cccc([N+](=O)[O-])c2o1 = 38
• CCC(=O)Nc1cccc2c(=O)cc(C(=O)O)oc12 = 30
• O=C(O)c1cc(=O)c2cc(Br)cc(NC(=O)c3ccc(Cl)cc3Cl)c2o1 = 32

(1) O=C(Nc1cccc2c(=O)cc(C(=O)O)oc12)c1cccc([N+](=O)[O-])c1
(2) O=C(Cc1ccccc1)Nc1cccc2c(=O)cc(C(=O)O)oc12
IN: API: POST /compare with 1 and 2 ; response names the item with higher Activity. Record your answer as the label of the chosen record.
OUT: 2

###

Target: G-protein coupled receptor 35 (Homo sapiens)
Assay: Agonist activity at human GPR35 expressed in CHO cells assessed as induction of beta-arrestin recruitment at 10 uM after 90 mins by beta-galactosidase reporter gene assay relative to zaprinast
Format: cell-based
endpoint-name: Emax (%)

• O=C(Nc1cc(Br)cc2c(=O)cc(C(=O)O)oc12)c1ccc(Cl)cc1 = 115
• COC(=O)CC(=O)Nc1cccc2c(=O)cc(C(=O)O)oc12 = 87
• O=C(O)c1cc(=O)c2cc(F)cc(NC(=O)c3ccc(Cl)cc3Cl)c2o1 = 113
• COc1ccc(C(=O)Nc2cc(Br)cc3c(=O)cc(C(=O)O)oc23)cc1 = 121

###

Molecular target: G-protein coupled receptor 35 (Homo sapiens)
Test: Agonist activity at human GPR35b expressed in CHO cells assessed as induction of beta-arrestin recruitment after 90 mins by beta-galactosidase reporter gene assay
Type: cell-based
endpoint-name: EC50 (nM)

Answered cases to consult:
- COc1ccc(C(=O)Nc2cc(Cl)cc3c(=O)cc(C(=O)O)oc23)cc1: 28.6
- O=C(Nc1cc(F)cc2c(=O)cc(C(=O)O)oc12)c1ccc(Cl)c(Cl)c1: 106
- COc1ccc(C(=O)Nc2cc(Br)cc3c(=O)cc(C(=O)O)oc23)cc1OC: 628

(A) COc1ccc(C(=O)Nc2cc(Br)cc3c(=O)cc(C(=O)O)oc23)c(Cl)c1
(B) COc1ccc(C(=O)Nc2cccc3c(=O)cc(C(=O)O)oc23)cc1
(C) O=C(Nc1cc(Br)cc2c(=O)cc(C(=O)O)oc12)c1ccc(Cl)cc1
IN: Sequence the entries by EC50, beginning with the highest number. Reply: labels, ordered per the request.
OUT: B, C, A
(B: 472 nM, C: 40.5 nM, A: 14.7 nM)

###

Molecular target: G-protein coupled receptor 35 (Homo sapiens, UniProt Q9HC97)
Sequence (Q9HC97 whole entry): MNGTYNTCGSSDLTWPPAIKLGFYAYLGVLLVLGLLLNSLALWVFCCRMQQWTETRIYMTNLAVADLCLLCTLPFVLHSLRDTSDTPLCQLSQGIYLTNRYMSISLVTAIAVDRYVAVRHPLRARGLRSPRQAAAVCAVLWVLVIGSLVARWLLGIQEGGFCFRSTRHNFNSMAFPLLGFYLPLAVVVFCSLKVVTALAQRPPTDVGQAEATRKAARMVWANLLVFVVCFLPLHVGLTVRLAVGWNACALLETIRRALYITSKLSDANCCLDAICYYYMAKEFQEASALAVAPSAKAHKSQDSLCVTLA
Assay: Agonist activity at human GPR35 expressed in CHO cells assessed as induction of beta-arrestin recruitment at 10 uM after 90 mins by beta-galactosidase reporter gene assay relative to zaprinast
Assay type: cell-based
endpoint-name: Emax (%)

* N#Cc1ccc(C(=O)Nc2cc(Br)cc3c(=O)cc(C(=O)O)oc23)cc1 | 108
* Cc1cccc(C(=O)Nc2cc(Br)cc3c(=O)cc(C(=O)O)oc23)c1 | 138
* COc1ccc(C(=O)Nc2cc(Br)cc3c(=O)cc(C(=O)O)oc23)nc1 | 115
* COc1ccc(C(=O)Nc2cc(Br)cc3c(=O)cc(C(=O)O)oc23)cc1OC | 102
* Cc1cccc(C(=O)Nc2cc(Cl)cc3c(=O)cc(C(=O)O)oc23)c1 | 102
* COc1ccccc1C(=O)Nc1cc(Br)cc2c(=O)cc(C(=O)O)oc12 | 91
* O=C(Nc1cc(Cl)cc2c(=O)cc(C(=O)O)oc12)c1ccc([N+](=O)[O-])cc1 | 130
* COc1ccc(C(=O)Nc2cc(F)cc3c(=O)cc(C(=O)O)oc23)cc1 | 123
* O=C(Nc1cccc2c(=O)cc(C(=O)O)oc12)c1ccc(C(F)(F)F)cc1 | 81
* O=C(Nc1cc(Br)cc2c(=O)cc(C(=O)O)oc12)c1ccc(Cl)c(Cl)c1 | 110

###

Target: G-protein coupled receptor 35 (Mus musculus, UniProt Q9ES90)
Experiment: Agonist activity at mouse GPR35 expressed in CHO cells assessed as induction of beta-arrestin recruitment after 90 mins by beta-galactosidase reporter gene assay
endpoint-name: EC50 (µM)

Answered cases to consult:
• COc1ccc(C(=O)Nc2cc(Br)cc3c(=O)cc(C(=O)O)oc23)cc1OC = 6.4
• O=C(Nc1cccc2c(=O)cc(C(=O)O)oc12)c1ccc2ccccc2n1 = 3.59
• COc1ccccc1C(=O)Nc1cc(Br)cc2c(=O)cc(C(=O)O)oc12 = 4.95
• O=C(O)c1cc(=O)c2c(OCC(O)COc3cccc4oc(C(=O)O)cc(=O)c34)cccc2o1 [CROMOLYN SODIUM] = 4.84
• O=C(Nc1cccc2c(=O)cc(C(=O)O)oc12)c1ccc2ccccc2c1 = 2.99
• COc1ccc(C(=O)Nc2cccc3c(=O)cc(C(=O)O)oc23)cc1 = 5.03

(P) CCCOc1ccccc1-c1nc2nn[nH]c2c(=O)[nH]1 [ZAPRINAST]
(Q) COc1ccc(C(=O)Nc2cc(Br)cc3c(=O)cc(C(=O)O)oc23)cn1
(R) O=C1N/C(=N/c2ccccc2F)S/C1=C\c1ccc(C(=O)O)cc1
IN: Sequence the entries by EC50, beginning with the highest number. Reply: labels, ordered per the request.
OUT: R, Q, P
(R: 17 µM, Q: 4.98 µM, P: 1.6 µM)

###

Biological target: G-protein coupled receptor 55 (Homo sapiens)
Sequence (Q9Y2T6 whole entry): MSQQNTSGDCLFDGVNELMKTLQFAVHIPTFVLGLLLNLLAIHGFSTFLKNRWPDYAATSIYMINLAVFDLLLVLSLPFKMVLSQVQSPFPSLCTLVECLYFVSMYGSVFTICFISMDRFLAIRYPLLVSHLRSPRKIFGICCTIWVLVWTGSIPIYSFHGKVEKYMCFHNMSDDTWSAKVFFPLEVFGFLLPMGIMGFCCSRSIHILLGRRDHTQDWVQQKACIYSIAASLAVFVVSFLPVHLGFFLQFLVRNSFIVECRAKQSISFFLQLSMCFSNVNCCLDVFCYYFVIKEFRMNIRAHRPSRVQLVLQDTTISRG
Assay: Antagonist activity at human GPR55 expressed in CHO cells assessed as inhibition of lysophosphotidylinositol-induced beta-arrestin recruitment at 10 uM preincubated for 30 mins followed by lysophosphotidylinositol induction by beta-galactosidase reporter gene assay relative to control
Assay type: functional, cell-based
endpoint-name: inhibition (%)

(A) Cc1cccc(C(=O)Nc2cc(Cl)cc3c(=O)cc(C(=O)O)oc23)c1
(B) O=C(Nc1cc(Br)cc2c(=O)cc(C(=O)O)oc12)c1ccccc1
IN: Sorting ascending by inhibition, which comes first: A or B ? Record your answer as the label of the chosen record.
OUT: B
(B: 21%, A: 40%)

(I) O=C(Nc1cc(Br)cc2c(=O)cc(C(=O)O)oc12)c1ccc2c(c1)OCO2
(II) O=C(Nc1cccc2c(=O)cc(C(=O)O)oc12)c1ccc(C(F)(F)F)cc1
IN: API: POST /compare with I and II ; response names the item with higher inhibition. Record your answer as the label of the chosen record.
OUT: I
(I: 46%, II: 5%)

###

Biological target: G protein-coupled receptor GPR35 (Rattus norvegicus) (UniProt Q33BM1)
Sequence (Q33BM1 as listed by the source): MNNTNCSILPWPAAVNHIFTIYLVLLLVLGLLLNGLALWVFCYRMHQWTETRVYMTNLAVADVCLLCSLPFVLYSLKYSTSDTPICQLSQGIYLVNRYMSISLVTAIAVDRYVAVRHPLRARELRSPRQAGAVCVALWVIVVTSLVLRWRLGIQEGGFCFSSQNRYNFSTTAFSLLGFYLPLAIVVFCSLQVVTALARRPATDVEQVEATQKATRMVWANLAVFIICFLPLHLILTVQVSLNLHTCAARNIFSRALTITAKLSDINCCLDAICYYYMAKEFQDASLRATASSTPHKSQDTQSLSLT
Test: Agonist activity at rat GPR35 expressed in CHO cells assessed as induction of beta-arrestin recruitment at 10 uM after 90 mins by beta-galactosidase reporter gene assay
Format: cell-based
endpoint-name: Activity (%)

Answered cases to consult:
* O=C(Nc1cccc2c(=O)cc(C(=O)O)oc12)c1ccc(C(F)(F)F)cc1 | 38
* O=C(Nc1cccc2c(=O)cc(C(=O)O)oc12)c1ccc2ccccc2n1 | 41
* O=C(Nc1cccc2c(=O)cc(C(=O)O)oc12)c1ccc2ccccc2c1 | 46

(P) Nc1cc(Br)cc2c(=O)cc(C(=O)O)oc12
(Q) CCOC(=O)c1cc(=O)c2cc(F)cc(NC(=O)c3ccc(OC)cc3)c2o1
IN: Sorting ascending by Activity, which comes first: P or Q ? Record your answer as the label of the chosen record.
OUT: Q

###

Target: G-protein coupled receptor 35 (Mus musculus) (UniProt Q9ES90)
Sequence (Q9ES90 whole entry): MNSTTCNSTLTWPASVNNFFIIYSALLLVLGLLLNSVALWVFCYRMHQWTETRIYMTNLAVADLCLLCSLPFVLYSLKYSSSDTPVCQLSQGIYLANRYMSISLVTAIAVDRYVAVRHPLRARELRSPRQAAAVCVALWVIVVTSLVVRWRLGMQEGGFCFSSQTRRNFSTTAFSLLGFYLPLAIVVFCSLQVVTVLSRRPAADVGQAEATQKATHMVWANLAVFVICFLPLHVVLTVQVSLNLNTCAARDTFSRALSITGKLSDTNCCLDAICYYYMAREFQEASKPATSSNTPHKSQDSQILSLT
Assay: Agonist activity at mouse GPR35 expressed in CHO cells assessed as induction of beta-arrestin recruitment at 10 uM after 90 mins by beta-galactosidase reporter gene assay
Type: cell-based
endpoint-name: Activity (%)

Answered cases to consult:
• COc1ccc(C(=O)Nc2cc(Br)cc3c(=O)cc(C(=O)O)oc23)cc1 = 36
• Cc1cccc(C(=O)Nc2cccc3c(=O)cc(C(=O)O)oc23)c1 = 18
• COc1ccc(C(=O)Nc2cc(Br)cc3c(=O)cc(C(=O)O)oc23)nc1 = 27
• O=C(Nc1cc(Br)cc2c(=O)cc(C(=O)O)oc12)c1ccc2c(c1)OCO2 = 34
• O=C(Nc1cc(Br)cc2c(=O)cc(C(=O)O)oc12)c1ccc(Cl)cc1 = 27
• CCOc1ccc(C(=O)Nc2cc(Br)cc3c(=O)cc(C(=O)O)oc23)cc1 = 36

(P) Nc1cccc2c(=O)cc(C(=O)O)oc12
(Q) O=C(Nc1cccc2c(=O)cc(C(=O)O)oc12)c1ccc(Br)cc1
(R) O=C(Nc1cccc2c(=O)cc(C(=O)O)oc12)c1ccc(OCC2CC2)cc1
(S) O=C(Nc1cc(Br)cc2c(=O)cc(C(=O)O)oc12)c1ccccc1
IN: Put the compounds in ascending order of Activity. Reply: labels, ordered per the request.
OUT: P, R, Q, S

From: ChEMBL document CHEMBL2390920
